# credit: patent US20240247072A1

Biological target: T1, recombinant trimeric protein of human CD70 extracellular region (human CD70 mIgG Fc (knob) / mouse IgG Fc … (human, UniProt P01863 98-330 = IgG part))
T1 construct: The ELISA and Octet texts say only 'recombinant CD70 protein' / 'CM352 antigen'; also called recombinant human CD70 protein; recombinant CD70 protein
T1 chain 1: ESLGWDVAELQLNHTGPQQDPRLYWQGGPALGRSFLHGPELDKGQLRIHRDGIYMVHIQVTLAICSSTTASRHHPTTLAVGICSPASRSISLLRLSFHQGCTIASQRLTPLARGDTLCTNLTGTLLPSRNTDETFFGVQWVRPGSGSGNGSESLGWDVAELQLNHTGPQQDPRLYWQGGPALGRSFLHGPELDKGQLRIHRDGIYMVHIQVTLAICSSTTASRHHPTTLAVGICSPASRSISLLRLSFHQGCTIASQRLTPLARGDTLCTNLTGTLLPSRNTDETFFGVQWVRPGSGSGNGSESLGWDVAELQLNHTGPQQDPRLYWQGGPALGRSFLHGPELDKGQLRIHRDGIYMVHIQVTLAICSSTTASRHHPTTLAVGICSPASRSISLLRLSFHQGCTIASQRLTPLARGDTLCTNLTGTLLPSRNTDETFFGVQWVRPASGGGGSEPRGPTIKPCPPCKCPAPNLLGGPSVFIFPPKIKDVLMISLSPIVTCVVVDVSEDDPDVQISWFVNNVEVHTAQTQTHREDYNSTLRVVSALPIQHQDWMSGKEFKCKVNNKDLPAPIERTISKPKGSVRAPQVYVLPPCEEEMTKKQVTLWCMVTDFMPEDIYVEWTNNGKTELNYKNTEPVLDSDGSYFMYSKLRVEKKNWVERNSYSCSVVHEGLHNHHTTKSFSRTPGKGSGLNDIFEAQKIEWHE
T1 chain 2: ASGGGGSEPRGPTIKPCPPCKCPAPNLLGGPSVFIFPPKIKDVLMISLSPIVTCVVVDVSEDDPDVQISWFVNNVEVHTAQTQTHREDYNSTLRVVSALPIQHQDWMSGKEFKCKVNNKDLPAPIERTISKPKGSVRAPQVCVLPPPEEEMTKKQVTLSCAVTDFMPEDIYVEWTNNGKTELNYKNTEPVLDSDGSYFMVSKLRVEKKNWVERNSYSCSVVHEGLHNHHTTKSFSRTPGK
Experiment: competition ELISA, Fab titrated, human CD27 coated, biotin-CD70
valueType: IC50 (nM)
Respond with the bare value in nM.

Worked cases, answers included:
1) 25H7 Fab antibody (Fab, V domains shown, Purified Fab from the mouse Fab phage display library) VH: EIQLVQSGPELKKPGETVKISCKASGYTFTNYGMNWVKQTPGKGLKWMGWINTDTGEPTYADDFKGRFAFSLETSASTAYLQINNLKNEDMATYFCAREEDYRYVFNYWGQGTTLTVSS VL: DIQMTQTTSSLSASLGDRVTISCRASQDISNYLNWYQQKPDGTVKLLIYYTSRLHSGVPSRFSGSGSGTDYSLTISNLEQEDIATYFCQQGVTLPLTFGAGTKLELK: 0.76
2) 12A1 Fab antibody (Fab, V domains shown, Purified Fab from the mouse Fab phage display library) VH: QVQLQQSGPGLVQPSQSLSITCTVSGFSLTTYAVHWVRQSPGKGLEWLGVIWSTGITDYNAAFISRLSISKDNSKSQVFFKMDSLQSDDTAIYFCARNPHYGNLNAMDYWGQGTSVTVSS VL: DIVLTQSPASLAVSLGQRATISCRASKSVSASGYTWMHWYQQKPGQAPKLLIYLASNLESGVPARFSGSGSGTDFTLNIHPVEEEDAATYYCQHSRELPPTFGGGTKLEIK: 1.88

Next:
Input: Any idea what its IC50 is? The binder is 32D1 Fab antibody (Fab, V domains shown, Purified Fab from the mouse Fab phage display library) VH: EVQLQQSGPELVKPGASLKMSCKASGYTFTDYVIHWVKQKPGQGLEWIGYLHPYNDDTKYNEKFKGKATLTSDKSSSTAYMELNSLTSEDSAVYYCARRGYYDYAWFADWGQGTLVTVSA VL: DIVLTQSPASLAVSLGQRATISCKASKSVSASGYTWMHWYQQKPGQAPKLLIYLASNLESGVPARFSGSGSGTDFTLNIHPVEEEDAATYYCQHSRELPPTFGGGTKLEIK
Output: 2.26
